Origin of measurements: the supplement of paper PMC10567573

The following variants are listed with their measured protein stability index values.
B1: RSPH3 (parent)
chain: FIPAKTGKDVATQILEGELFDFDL

Variants of: B1
Assay: protein stability index of a GFP-peptide fusion (GPS, HEK-293T) (PSI 1-6); higher = more stable;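 note: lentivirally expressed fusions sorted by FACS into six bins by GFP to DsRed ratio, PSI derived from sequencing read proportions per bin multiplied by bin number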
Details: c terminus: a fixed tail appended
The answer should be a number; do not append a unit.

Problem: // protein stability index lookup, key: `K5C`
Result: 1.87

Problem: Sample `F22S` — what was its protein stability index?
Result: 2.86

Problem: What value of measured protein stability index is listed for `T6H` ?
Result: 1.82

Others:
Problem: Fill in: protein stability index of `T6N` is ___
Result: 1.91

Problem: Give its protein stability index value. Item: `E16P`
Result: 1.8

Problem: For the variant `Q13L` , what protein stability index is on record?
Result: 2.38

Problem: What does the record list as protein stability index for `I2N` ?
Result: 2.83

Problem: Returns the measured protein stability index for the input variant. Input: `A4S`
Result: 1.64

Problem: Given the variant `I2F` , what is its reported protein stability index?
Result: 2.86

Problem: protein stability index for `G7L` ?
Result: 2.12

Problem: I have this variant here, `L24F` , and I need its recorded protein stability index.
Result: 1.95

Problem: Please give the measured protein stability index for this variant: `I2R`
Result: 3.72

Problem: Please report the recorded protein stability index for `L15Y` .
Result: 1.76
